FYI, the data here is from ChEMBL document CHEMBL1140053.

Tested on: Mycolicibacterium smegmatis
Assay: Antimycobacterial activity against Mycobacterium smegmatis MC2 by agar dilution method
Assay type: functional
Reported MIC values follow for various molecules
MEASURED ENDPOINT: MIC (mg/L)

molecule="CN1C/C(=C\\c2cccc3ccccc23)C(=O)[C@]2(C1)[C@@H](c1cccc3ccccc13)[C@H](c1ccccc1)N[C@@]21C(=O)Nc2ccccc21 (racemic)" scale_unit=mg/L reported=20
molecule="CN1C/C(=C\\c2ccccc2)C(=O)[C@]2(C1)[C@@H](c1ccccc1)[C@H](c1ccccc1)N[C@@]21C(=O)Nc2ccccc21 (racemic)" scale_unit=mg/L reported=2.97
molecule="COc1ccccc1/C=C1\\CN(C)C[C@@]2(C1=O)[C@@H](c1ccccc1OC)CN(C)[C@@]21C(=O)Nc2ccccc21 (racemic)" scale_unit=mg/L reported=2.98
molecule="CN1C/C(=C\\c2ccc(F)cc2)C(=O)[C@]2(C1)[C@@H](c1ccc(F)cc1)[C@H](c1ccccc1)N[C@@]21C(=O)Nc2ccccc21 (racemic)" scale_unit=mg/L reported=0.69
molecule="COc1ccc(/C=C2\\CN(C)C[C@@]3(C2=O)[C@@H](c2ccc(OC)cc2)CN(C)[C@@]32C(=O)Nc3ccccc32)cc1 (racemic)" scale_unit=mg/L reported=2.98
molecule="CN1C/C(=C\\c2ccccc2)C(=O)[C@]2(C1)[C@@H](c1ccccc1)CN(C)[C@@]21C(=O)Nc2ccccc21 (racemic)" scale_unit=mg/L reported=54
molecule="CN1C/C(=C\\c2cccc(F)c2)C(=O)[C@]2(C1)[C@@H](c1cccc(F)c1)[C@H](c1ccccc1)N[C@@]21C(=O)Nc2ccccc21 (racemic)" scale_unit=mg/L reported=5.58
molecule="CN1C/C(=C\\c2cccc3ccccc23)C(=O)[C@]2(C1)[C@@H](c1cccc3ccccc13)CN(C)[C@@]21C(=O)Nc2ccccc21 (racemic)" scale_unit=mg/L reported=22.2
molecule="CN1C/C(=C\\c2ccco2)C(=O)[C@]2(C1)[C@@H](c1ccco1)CN(C)[C@@]21C(=O)Nc2ccccc21 (racemic)" scale_unit=mg/L reported=0.88
molecule="O=C(O)c1cn(C2CC2)c2cc(N3CCNCC3)c(F)cc2c1=O [CIPROFLOXACIN]" scale_unit=mg/L reported=2.35
molecule="Cc1ccccc1/C=C1\\CN(C)C[C@@]2(C1=O)[C@@H](c1ccccc1C)[C@@H]1CCCN1[C@@]21C(=O)Nc2ccccc21 (racemic)" scale_unit=mg/L reported=24.2
molecule="CN1C/C(=C\\c2ccc(Cl)cc2Cl)C(=O)[C@]2(C1)[C@@H](c1ccc(Cl)cc1Cl)CN(C)[C@@]21C(=O)Nc2ccccc21 (racemic)" scale_unit=mg/L reported=5.21
molecule="COc1ccccc1/C=C1\\CN(C)C[C@@]2(C1=O)[C@@H](c1ccccc1OC)[C@H](c1ccccc1)N[C@@]21C(=O)Nc2ccccc21 (racemic)" scale_unit=mg/L reported=1.33

###

Test system: Vero
Assay: Cytotoxicity against african green monkey Vero cells after 72 hrs by MTT assay
Assay type: cell-based
Conditions: Chlorocebus sabaeus
pIC50: −log10 of the molar value.
compounds and their reported pIC50
MEASURED ENDPOINT: pIC50

compound="COc1ccccc1/C=C1\\CN(C)C[C@@]2(C1=O)[C@@H](c1ccccc1OC)CN(C)[C@@]21C(=O)Nc2ccccc21 (racemic)" measured_endpoint=pIC50 reported=3.92
compound="CN1C/C(=C\\c2ccco2)C(=O)[C@]2(C1)[C@@H](c1ccco1)CN(C)[C@@]21C(=O)Nc2ccccc21 (racemic)" measured_endpoint=pIC50 reported=3.85
compound="CN1C/C(=C\\c2cccc3ccccc23)C(=O)[C@]2(C1)[C@@H](c1cccc3ccccc13)[C@@H]1CCCN1[C@@]21C(=O)Nc2ccccc21 (racemic)" measured_endpoint=pIC50 reported=3.97
